Overview of reported EC50 across a group of compounds:
Target: Short transient receptor potential channel 4 (Mus musculus)
Sequence (Q9QUQ5 whole entry): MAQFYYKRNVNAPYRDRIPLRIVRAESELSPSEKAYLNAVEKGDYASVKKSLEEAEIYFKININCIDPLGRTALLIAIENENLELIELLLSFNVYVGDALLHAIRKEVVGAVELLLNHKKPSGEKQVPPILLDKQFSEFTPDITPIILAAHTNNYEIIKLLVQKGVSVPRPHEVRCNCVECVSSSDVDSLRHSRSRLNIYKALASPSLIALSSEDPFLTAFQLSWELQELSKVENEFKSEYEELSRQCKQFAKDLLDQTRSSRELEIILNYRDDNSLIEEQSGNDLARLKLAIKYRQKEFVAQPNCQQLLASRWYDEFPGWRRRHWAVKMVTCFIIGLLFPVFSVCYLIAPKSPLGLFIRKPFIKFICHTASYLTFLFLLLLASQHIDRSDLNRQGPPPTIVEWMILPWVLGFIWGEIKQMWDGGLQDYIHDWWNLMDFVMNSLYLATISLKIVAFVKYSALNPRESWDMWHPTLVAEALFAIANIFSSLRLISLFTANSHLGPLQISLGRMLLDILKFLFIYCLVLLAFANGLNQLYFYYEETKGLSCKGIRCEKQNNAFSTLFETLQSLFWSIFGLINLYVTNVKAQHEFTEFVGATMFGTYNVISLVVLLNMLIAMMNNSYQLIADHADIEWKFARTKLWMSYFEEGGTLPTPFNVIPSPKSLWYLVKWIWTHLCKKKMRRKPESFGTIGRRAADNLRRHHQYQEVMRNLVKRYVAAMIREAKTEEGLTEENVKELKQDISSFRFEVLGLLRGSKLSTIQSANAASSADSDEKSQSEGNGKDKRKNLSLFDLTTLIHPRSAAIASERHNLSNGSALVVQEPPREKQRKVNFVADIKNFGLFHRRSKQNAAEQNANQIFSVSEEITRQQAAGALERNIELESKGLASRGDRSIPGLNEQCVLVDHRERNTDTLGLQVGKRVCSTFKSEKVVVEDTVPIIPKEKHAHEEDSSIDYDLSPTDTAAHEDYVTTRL
Assay: block of DAMGO-driven TRPC4 calcium entry – cell-based, HEK293 TRPC4/mu-opioid, Fluo-4 calcium, dose response (AID 434942);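 note: potency of inhibitors blocking the TRPC4 calcium response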
Format: functional
Active and inactive are the calls of the source.

CCOC(=O)C1(CC2CC2)CCN(Cc2cc(Cl)c(O)c(OC)c2)CC1 ... 3.76 µM (active)

Consider the compound Oc1ccc(CN2CCc3ccccc3C2)c2cccnc12 and give its measured EC50. 7.5 µM (active)

Consider the compound N#CCCn1cc(CNCc2ccccc2)c(-c2cccc([N+](=O)[O-])c2)n1 and give its measured EC50. 3.76 µM (active)

Consider the compound COc1cc(C(F)(F)F)nc2c(Br)c(C(C)(C)C)nn12 and give its measured EC50. 1.5 µM (active)

Consider the compound Cc1cccc(NC(=O)CSc2nnc(-c3cc(C)n(-c4ccccc4)c3C)o2)c1C and give its measured EC50. 2.11 µM (active)

Consider the compound CCOc1cc(CNCCCN2CCOCC2)cc(Br)c1OCC(=O)Nc1cccc(C(F)(F)F)c1 and give its measured EC50. 6.68 µM (active)

---

target: UniProt:P03070; assay type: functional, Betapolyomavirus macacae
Sequence (P03070 whole entry): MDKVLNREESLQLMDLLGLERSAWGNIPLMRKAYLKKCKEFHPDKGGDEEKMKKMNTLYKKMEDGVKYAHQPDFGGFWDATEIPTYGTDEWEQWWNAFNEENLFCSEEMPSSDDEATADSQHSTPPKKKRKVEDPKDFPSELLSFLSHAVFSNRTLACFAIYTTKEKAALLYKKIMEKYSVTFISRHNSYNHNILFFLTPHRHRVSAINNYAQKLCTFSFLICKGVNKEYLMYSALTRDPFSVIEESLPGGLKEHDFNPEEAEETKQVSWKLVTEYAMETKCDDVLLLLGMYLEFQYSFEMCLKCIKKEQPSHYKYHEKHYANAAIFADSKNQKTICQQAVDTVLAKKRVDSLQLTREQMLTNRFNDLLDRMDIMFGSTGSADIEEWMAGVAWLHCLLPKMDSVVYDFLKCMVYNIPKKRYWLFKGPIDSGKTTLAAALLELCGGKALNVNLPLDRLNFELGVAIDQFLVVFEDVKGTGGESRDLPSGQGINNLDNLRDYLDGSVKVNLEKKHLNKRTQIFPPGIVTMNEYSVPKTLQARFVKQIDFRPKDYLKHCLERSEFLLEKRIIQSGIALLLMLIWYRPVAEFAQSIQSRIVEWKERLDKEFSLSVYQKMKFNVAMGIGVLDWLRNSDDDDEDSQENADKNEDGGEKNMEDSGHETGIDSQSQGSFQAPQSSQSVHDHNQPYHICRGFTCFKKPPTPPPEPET
Calls of active or inactive are those of the source.
Overview of reported IC50 across a group of molecules:

Would you please look over these solved cases?
CN(C)c1ccc(NC(=O)CN2CCC(N3CCCCC3)CC2)cc1 ... 22.9 µM (active)
Cc1ccc(N2C(=O)NC(=O)/C(=C\C=C\c3ccco3)C2=O)cc1C ... 16.4 µM (active)
N#CC(C#N)=C(N)/C(C#N)=C/c1cc(O)c(O)c(O)c1 ... 19.8 µM (active)
CN(C)c1ccc(C=C2C(=O)NC(=S)NC2=O)cc1[N+](=O)[O-] ... 73.7 µM (active)
CC(=O)c1cccc(S(=O)(=O)N2CCCC(c3nc(-c4ccc(C)o4)no3)C2)c1 (configuration not stated) ... 36.4 µM (active)

Form field - read-out: IC50; system: UniProt:P03070; submitted item: CC(=O)N1CCN(c2ccc(NCc3cccc4ccccc34)cc2)CC1 10.1 µM (active)

Form field - read-out: IC50; system: UniProt:P03070; submitted item: Cc1cc2c(N=O)c(NO)ccc2[nH]1 29.3 µM (active)

Form field - read-out: IC50; system: UniProt:P03070; submitted item: Cc1cc(-c2nnc(S)n2/N=C/C=C/c2ccco2)[nH]n1 32.1 µM (active)

---

Overview of reported AC50 across a group of molecules:
target: Heat shock protein HSP 90-alpha (Homo sapiens, UniProt P07900); type: functional, organism-based
The source made the active and inactive calls.

Consider the molecule Cc1ccc(S(=O)(=O)N(C(=O)c2ccncc2)c2ccc(OC(=O)c3ccncc3)cc2)cc1 and give its measured AC50. 1.23 µM (active)

Consider the molecule NC(=O)C1CCN(C2CC(=O)N(c3ccc(F)c(Cl)c3)C2=O)CC1 (stereo unspecified) and give its measured AC50. 3.04 µM (active)

Consider the molecule COc1ccc2c(n1)Sc1nc3ccccc3nc1N2 and give its measured AC50. 1.96 µM (active)

Consider the molecule Oc1cc(OCc2ccccc2)ccc1-c1[nH]ncc1-c1ccccc1 and give its measured AC50. 9.12 µM (active)

Consider the molecule CC(=NNC(=S)N1CCC1)c1ccccn1 and give its measured AC50. 1.58 µM (active)

---

experiment: viability of HCT116 lacking mutant beta-catenin – cell-based, human colon tumor, dose response (AID 1045); assay type: functional;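 note: HCT116 colon tumor cells with beta catenin knocked out; cells exposed to compound for 60 hours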
Calls of active or inactive are those of the source.
MEASUREMENT KIND: EC50

Cc1cc(C)cc(NC(=O)/C=C/c2ccc([N+](=O)[O-])s2)c1 ... 6.03 µM (active)
Oc1ccc(CN2CCc3ccccc3C2)c2cccnc12 ... 1.52 µM (active)
CCCCc1c(C)c(C#N)c2nc3ccccc3n2c1Cl ... 1.52 µM (active)

Consider the compound O=[N+]([O-])c1cccc(/C=N/Nc2nc(C(Cl)(Cl)Cl)nc3ccccc23)c1 and give its measured EC50. 25.2 µM (active)

Consider the compound CO/N=C/c1ccc(N2CCN(C(=O)c3ccc(Cl)cc3Cl)CC2)c([N+](=O)[O-])c1 and give its measured EC50. 22.3 µM (active)

Consider the compound CCOC(=O)C(C)(C)N(Cc1ccc(Cl)cc1)S(=O)(=O)c1ccc(Cl)c([N+](=O)[O-])c1 and give its measured EC50. 8.15 µM (active)

---

molecular target: Glucose-6-phosphate 1-dehydrogenase (Homo sapiens, UniProt P11413); experiment: inhibition of Homo sapiens G6PD, dose series – biochemical, fluorescence, selectivity assay for P. falciparum G6PD inhibitor project, dose response (AID 504792); format: functional
Sequence (P11413 whole entry): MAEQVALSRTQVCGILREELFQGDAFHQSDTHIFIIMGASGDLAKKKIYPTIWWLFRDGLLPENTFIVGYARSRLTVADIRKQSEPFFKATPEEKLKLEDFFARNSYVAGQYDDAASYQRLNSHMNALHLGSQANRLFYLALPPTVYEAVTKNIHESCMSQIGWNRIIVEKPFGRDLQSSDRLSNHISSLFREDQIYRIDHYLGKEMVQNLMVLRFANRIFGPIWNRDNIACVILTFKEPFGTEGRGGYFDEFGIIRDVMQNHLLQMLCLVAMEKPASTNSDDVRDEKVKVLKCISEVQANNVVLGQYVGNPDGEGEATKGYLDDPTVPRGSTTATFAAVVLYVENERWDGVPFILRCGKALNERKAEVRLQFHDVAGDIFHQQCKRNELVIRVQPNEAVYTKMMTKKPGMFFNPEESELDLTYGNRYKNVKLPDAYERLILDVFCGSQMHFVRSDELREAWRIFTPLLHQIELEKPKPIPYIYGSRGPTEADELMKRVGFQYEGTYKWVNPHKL
Calls of active or inactive are those of the source.
MEASUREMENT KIND: IC50

Would you please look over these solved cases?
Cn1c(=O)[nH]c(=O)c2c1nc(S)n2CCCc1ccccc1 ... > 80 µM (inactive)
COc1ccc(/C=C/c2nc3ccccc3n2C)cc1 ... > 80 µM (inactive)
CCN1CCN(c2nc(C)nc3c2sc(=S)n3C)CC1 ... > 80 µM (inactive)
Cc1ccc(/C=C/C(=O)Nc2ccc([N+](=O)[O-])c(NC(=O)/C=C/c3ccc(C)o3)c2)o1 ... > 80 µM (inactive)
Cc1cc(O)c(C(C)C)cc1N=Cc1ccc([N+](=O)[O-])cc1 ... 44.4 µM (inactive)

From here, focus on the item given below.
Consider the molecule COc1ccc(-c2cn3cc(C)ccc3n2)cc1Br and give its measured IC50. > 80 µM (inactive)

---

Below are AC50 values measured for Cytochrome P450 1A2 (Homo sapiens).

Would you please look over these solved cases?
O=C(NCc1cccs1)C1CCN(S(=O)(=O)c2cccc3nsnc23)CC1 ... 0.158 µM (inconclusive)
Cc1cc(Nc2ccccc2)nc(N)n1 ... 8.91 µM (inconclusive)
CCS(=O)(=O)N1CCC[C@H]2CN3CCc4cc(OC)ccc4[C@@H]3C[C@@H]21 ... 31.6 µM (inconclusive)
CC(C)(C)CC(=O)NC(=S)N1CCCCCC1 ... 15.8 µM (inconclusive)
Cc1ccccc1-c1cc(NCCN2CCOCC2)ncn1 ... 31.6 µM (inconclusive)

Form field - read-out: AC50; system: Cytochrome P450 1A2 (Homo sapiens); submitted item: O=C(CSc1ccc(C(F)(F)F)cc1[N+](=O)[O-])Nc1ccccc1 1.26 µM (inconclusive)

Form field - read-out: AC50; system: Cytochrome P450 1A2 (Homo sapiens); submitted item: O=C(NC1CCN(Cc2ccccc2)CC1)c1ccc(I)cc1 39.8 µM (inconclusive)

Form field - read-out: AC50; system: Cytochrome P450 1A2 (Homo sapiens); submitted item: CCNc1ncc2nc(-c3cc(F)cc(F)c3)c(=O)n(C[C@H]3CCCO3)c2n1 3.16 µM (inconclusive)

Form field - read-out: AC50; system: Cytochrome P450 1A2 (Homo sapiens); submitted item: CCOC(=O)c1cnc2c(cnn2C)c1NCCCN(C)C 22.4 µM (inconclusive)

Form field - read-out: AC50; system: Cytochrome P450 1A2 (Homo sapiens); submitted item: CCCCCCC[n+]1ccc(-c2cc[n+](CCCCCCC)cc2)cc1 31.6 µM (inconclusive)
